pIC50 overview
- Study system: T1, human IgE with the M1′ sequence (long form of membrane IgE) expressed on transduced BJAB or Daudi cells (human, UniProt P01854 116-546)
- T1 construct: Full-length heavy and light chains of the U266 IgE B cell receptor, retrovirally expressed; also called IgE/M1′; IgE-M1′
- T1 sequence (P01854 116-546 I515L limits assumed): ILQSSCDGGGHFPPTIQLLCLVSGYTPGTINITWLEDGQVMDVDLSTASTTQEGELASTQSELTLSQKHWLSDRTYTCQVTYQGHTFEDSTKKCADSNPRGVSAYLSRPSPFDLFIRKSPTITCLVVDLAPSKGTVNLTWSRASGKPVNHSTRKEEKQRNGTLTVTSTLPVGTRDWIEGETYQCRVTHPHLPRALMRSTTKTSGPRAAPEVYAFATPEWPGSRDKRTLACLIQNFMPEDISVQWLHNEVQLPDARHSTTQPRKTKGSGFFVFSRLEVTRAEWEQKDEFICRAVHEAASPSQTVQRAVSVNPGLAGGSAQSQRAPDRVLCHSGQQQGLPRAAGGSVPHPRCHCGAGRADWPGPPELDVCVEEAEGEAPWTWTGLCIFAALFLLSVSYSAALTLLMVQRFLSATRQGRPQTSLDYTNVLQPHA
- Procedure details: competitive ECL binding on BJAB-IgE/M1′ cells vs biotinylated 26A11 or 47H4, 1st IC50 column
On this scale, pIC50 is minus log10 of a concentration expressed in M (mol/L).

Consider the reported pIC50 for these binders:
humanized anti-IgE/M1′ antibody 26A11.v3 (antibody, V domains shown, produced as IgG) VH: EVQLVESGGGLVQPGGSLRLSCAASGYTFTDYYMMWVRQAPGKGLEWVGDINPNNYDTSYNQKFKGRFTISADTSKNTAYLQMNSLRAEDTAVYYCASKAYWGQGTLVTVSS VL: DIQMTQSPSSLSASVGDRVTITCRSSQDISNYLNWYQQKPGKAPKLLIYSTSRLHSGVPSRFSGSGSGTDFTLTISSLQPEDFATYYCQQGHTLPWTFGQGTKVEIKR; 8.00
murine anti-IgE/M1′ antibody 47H4 (antibody, V domains shown, mIgG1 hybridoma antibody; also called mu47H4; 47H4 mIgG1) VH: EVKLVESGGGLVQPGGSRKLSCAASGFTFSDYGMAWVRQAPGKGPEWVAFISDLAYTIYYADTVTGRFTISRENAKNTLYLEMSSLRSEDTALYYCARDNWDAMDYWGQGTSVTVSS VL: DIVLTQTPLSLPVSLGDQASISCRSSQSLVHNNGNTYLHWYLQKPGQSPKLLIYKVSNRFSGVPDRFSGSGSGTDFTLKISRLEAEDLGVYFCSQNTLVPWTFGGGTKVEIKR; 7.21

Which pIC50 reading was recorded for the binder humanized anti-IgE/M1′ antibody 26A11.v2 (antibody, V domains shown, produced as IgG) VH: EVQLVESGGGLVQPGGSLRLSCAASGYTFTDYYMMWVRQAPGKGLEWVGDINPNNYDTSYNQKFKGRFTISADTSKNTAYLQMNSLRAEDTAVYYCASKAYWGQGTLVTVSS VL: DIQMTQSPSSLSASVGDRVTITCRSSQDISNALNWYQQKPGKAPKLLIYSTSRLHSGVPSRFSGSGSGTDFTLTISSLQPEDFATYYCQQGHTLPWTFGQGTKVEIKR ?
7.74

# input binder: humanized anti-IgE/M1′ antibody 26A11.v5 (antibody, V domains shown, produced as IgG) VH: EVQLVESGGGLVQPGGSLRLSCAASGYTFTDYYIMWVRQAPGKGLEWVGDINPNNYDTSYNQKFKGRFTISADTSKNTAYLQMNSLRAEDTAVYYCASKAYWGQGTLVTVSS VL: DIQMTQSPSSLSASVGDRVTITCRSSQDISNALNWYQQKPGKAPKLLIYSTSRLHSGVPSRFSGSGSGTDFTLTISSLQPEDFATYYCQQGHTLPWTFGQGTKVEIKR ; wanted: its pIC50
7.60

Look up pIC50 for this binder: murine anti-IgE/M1′ antibody 7A6 (antibody, V domains shown, mIgG1 hybridoma antibody; also called mu7A6; 7A6 mIgG1) VH: QVQLQQSGAELVRPGASVTLSCKASGYTFIDYEMHWVKQTPVHGLEWIGAIDPETGTTAYNQKFKGKATLTAAKSSSTAYMELRSLTSEDSAVYYCTRLRPHYDYDNAMDSWGQGTTLTVSS VL: DIVMSQSPSSLTVSVGEKVTLSCKSSQTLLYSTNQKNYLAWYQQKPGQSPKLLIYWASTRESGVPDRFTGSGSGTDFTLTISSVKAEDLAVYYCQQYYSYPYTFGGGTKVEIKR
7.28
